Ref: patent US7364741B1

# Lookup of reported binding ratio to standard keyed by entry
- experimentalTarget: HLA-A1 (Homo sapiens, UniProt P04439, A114D/A174V/A182V/D101N/E190D/Q94H/R68K/S129P/V100A/V91M/W191G)
- Construct: endogenous in cells; host or cells: EBV transformed cell line Steinlin (protein purified from NP40 lysate)
- method: Immunochemical peptide-MHC binding assay, purified HLA-A1, radiolabeled probe YLEPAIAKY
- runParameters: IC50 of standard divided by IC50 of tested peptide, cysteines synthesized as alanine
Kindly provide the number alone.

Example sequences with recorded binding ratio to standard:
YRDGNPYAV [residues 61-69 of HPV16 protein E6]    0.008
MSCCRSSRT    0.019
HVDIRTLED [residues 73-81 of HPV16 protein E7]    0.014
WTGRCMSCC [residues 139-147 of HPV16 protein E6]    0.020
EIDGPAGQA [residues 37-45 of HPV16 protein E7]    0.025

Now for another entry.
### Prompt May I ask what binding ratio to standard has been recorded for TTDLYCYEQ [residues 19-27 of HPV16 protein E7] ?
### Response 0.023

----------
- experimentalTarget: HLA-A3.2 (Homo sapiens)
- Construct: endogenous in cells; host or cells: EBV transformed cell line GM3107 (protein purified from NP40 lysate)
- Sequence (P04439 25-365): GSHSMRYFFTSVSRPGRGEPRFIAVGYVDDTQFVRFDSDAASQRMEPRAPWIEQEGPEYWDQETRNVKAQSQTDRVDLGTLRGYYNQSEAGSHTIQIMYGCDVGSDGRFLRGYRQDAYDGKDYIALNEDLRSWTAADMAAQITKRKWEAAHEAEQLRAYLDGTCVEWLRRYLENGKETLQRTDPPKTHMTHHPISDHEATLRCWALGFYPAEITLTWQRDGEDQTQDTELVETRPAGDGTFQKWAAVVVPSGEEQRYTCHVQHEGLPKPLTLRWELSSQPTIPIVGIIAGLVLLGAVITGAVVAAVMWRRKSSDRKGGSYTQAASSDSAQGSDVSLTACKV
- Sequence (P61769 21-119, further chain): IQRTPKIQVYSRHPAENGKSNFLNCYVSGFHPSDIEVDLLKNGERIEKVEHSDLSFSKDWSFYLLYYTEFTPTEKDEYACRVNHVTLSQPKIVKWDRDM
- Format: binding
- runParameters: HLA-A3.2; IC50 of standard divided by IC50 of tested peptide; cysteines synthesized as alanine
assayEndpoint: binding ratio to standard
Reply briefly: the number, and no unit.

KCDSTLRLC [residues 60-68 of HPV16 protein E7]    0.0012
ISEYRHYCY [residues 80-88 of HPV16 protein E6]    0.0064
CMSCCRSSR [residues 143-151 of HPV16 protein E6]    0.1800
QQLLRREVY [residues 42-50 of HPV16 protein E6]    0.0058
IILECVYCK [residues 33-41 of HPV16 protein E6]    1.5000

### Prompt Look at this sequence and give its reported binding ratio to standard. CVYCKQQLL [HPV16 peptide 8, residues 37-45 of HPV16 protein E6]
### Response 0.0320

### Prompt Which binding ratio to standard value belongs to RHYCYSLYG [residues 84-92 of HPV16 protein E6] ?
### Response 0.0036

### Prompt Entry SLYGTTLEQ [residues 89-97 of HPV16 protein E6] has what binding ratio to standard?
### Response 0.0080

### Prompt State the recorded binding ratio to standard for this entry: VCDKCLKFY [residues 69-77 of HPV16 protein E6]
### Response 0.0025

### Prompt Any idea what its binding ratio to standard is? The sequence is YNIVTFCCK [residues 52-60 of HPV16 protein E7]
### Response 0.0067

----------
- experimentalTarget: HLA-A2.1 (Homo sapiens, UniProt P04439, D140Y/D185E/D98H/E176V/E277Q/G131W/G231S/I119V/I121R/I166T/I218V/L300P/L318F/N151K/N90K/P208A/P217A/Q86G/Q94H/R138H/R169H/T345S)
- Construct: endogenous in cells; host or cells: 174CEM.T2
- Type: cell-based
- runParameters: HPV18 peptides; 200 μg/ml peptide, 16 hours, 174CEM.T2 cells
MF (mean HLA-A2.1 fluorescence) values by entry
The answer should be a number; do not append a unit.

Worked examples follow.
LSFVCPWCA [HPV18 peptide 14, residues 94-102 of HPV18 protein E7]    262.0
KTVLELTEV [HPV18 peptide 5, residues 36-44 of HPV18 protein E6]    467.5

# context switch: different sequence, same MF (mean HLA-A2.1 fluorescence)
### Prompt GET /values?readout=MF (mean HLA-A2.1 fluorescence)&item= DTLEKLTNT [HPV18 peptide 8, residues 88-96 of HPV18 protein E6]
### Response 238.2
